These data points were gathered from patent US10004732B2.

Below, each entry is listed with its recorded IC50.
biological target: PI 3-kinase beta (Homo sapiens, UniProt P42338); test: Kinase Glo Luminescent Kinase Assay (Kglo), assay B; type: biochemical; settings: read-out: Assay B PI3Kβ IC50
Sequence (P42338 whole entry): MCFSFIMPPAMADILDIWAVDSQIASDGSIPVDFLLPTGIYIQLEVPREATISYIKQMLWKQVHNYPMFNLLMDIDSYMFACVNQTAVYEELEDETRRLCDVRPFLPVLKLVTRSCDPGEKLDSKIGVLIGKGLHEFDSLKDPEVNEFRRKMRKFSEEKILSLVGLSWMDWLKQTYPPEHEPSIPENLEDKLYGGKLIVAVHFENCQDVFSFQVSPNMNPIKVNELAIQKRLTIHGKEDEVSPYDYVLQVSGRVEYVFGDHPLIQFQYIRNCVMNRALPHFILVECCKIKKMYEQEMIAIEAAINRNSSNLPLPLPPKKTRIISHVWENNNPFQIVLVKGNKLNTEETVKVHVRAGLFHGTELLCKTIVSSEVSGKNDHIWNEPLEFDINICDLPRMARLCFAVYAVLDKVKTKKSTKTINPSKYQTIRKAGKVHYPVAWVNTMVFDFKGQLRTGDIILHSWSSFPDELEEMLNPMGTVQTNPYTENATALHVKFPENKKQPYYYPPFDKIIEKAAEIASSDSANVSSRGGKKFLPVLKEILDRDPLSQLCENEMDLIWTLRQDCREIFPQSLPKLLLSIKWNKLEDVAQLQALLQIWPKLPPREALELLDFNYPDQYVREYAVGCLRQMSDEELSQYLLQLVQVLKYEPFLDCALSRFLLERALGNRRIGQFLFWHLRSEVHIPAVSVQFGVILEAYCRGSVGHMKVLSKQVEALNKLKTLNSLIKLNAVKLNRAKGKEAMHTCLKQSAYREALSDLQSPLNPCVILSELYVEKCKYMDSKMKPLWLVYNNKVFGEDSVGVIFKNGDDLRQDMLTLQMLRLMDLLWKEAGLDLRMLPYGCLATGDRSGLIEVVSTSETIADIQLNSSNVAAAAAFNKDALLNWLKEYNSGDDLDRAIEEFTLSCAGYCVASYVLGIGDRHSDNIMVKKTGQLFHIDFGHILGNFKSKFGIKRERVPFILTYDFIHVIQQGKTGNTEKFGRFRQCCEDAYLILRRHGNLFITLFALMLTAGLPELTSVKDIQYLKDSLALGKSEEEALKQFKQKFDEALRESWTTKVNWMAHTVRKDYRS
Sequence (P27986 461-568 partner): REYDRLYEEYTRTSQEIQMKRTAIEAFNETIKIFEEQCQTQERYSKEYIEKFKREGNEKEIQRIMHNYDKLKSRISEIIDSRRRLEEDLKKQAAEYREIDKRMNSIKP
State the value with its unit after it.

>>> df
                                   molecule  test_value
0  Cc1cc(-c2nc(-c3cc(S(=O)(=O)NCCC(C)(C)O)ccc3C)cnc2N)n(C)n1 [Example 119.36]     4.41 µM
1  Cc1ccc(S(=O)(=O)NCC2(C)COC2)cc1-c1cnc(N)c(-c2cn(C)nc2C)n1 [Example 17]      0.9 µM
2  Cc1ccc(S(=O)(=O)NC2CC(F)(F)C2)cc1-c1cnc(N)c(-n2cncn2)n1 [Example 127.7]      1.3 µM

// next entry
In: Request body: readout IC50, system PI 3-kinase beta (Homo sapiens, UniProt P42338), query Cc1cn(-c2nc(-c3cc(S(=O)(=O)NCCCO)ccc3C)cnc2N)cn1 [Example 57] . Return the value.
Out: 6.48 µM
